src = patent US9695155B2

# Test system: blackgrass
# assay_comment: Test C preemergence
# Format: in vivo, Alopecurus myosuroides
# assay_setup: Preemergence, 31 g ai/ha; scale 0 to 100, 0 no effect, 100 complete control
measure: Plant response rating, Blackgrass
Answers are plain numbers.

Consider the worked cases shown below.
>>> quantitative_readout("FCc1cccc(Oc2ncc(Cl)cn2)c1-n1cc(Br)cn1")
5
>>> quantitative_readout("FC(F)(F)c1cnn(-c2c(Cl)cccc2Oc2ncc(Cl)cn2)c1")
30
>>> quantitative_readout("N#Cc1cnn(-c2c(CF)cccc2Oc2ncc(F)cn2)c1")
0
>>> quantitative_readout("FCc1cn(-c2c(F)cccc2Oc2ncc(Cl)cn2)nn1")
10

What value of measured Plant response rating, Blackgrass is listed for FC(F)(F)c1cnn(-c2ccccc2Oc2ncc(Cl)cn2)c1 ?
85
